# Tested on: LOC_OS02G45750-cb003;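 further: purified Escherichia coli-expressed rice kinase domain construct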
# assay.details: thermal shift delta Tm vs DMSO control; higher = stronger stabilization (binding)
# condition: 12.5 µM; protein concentration 2 µM
# thermal shift delta Tm >= 0.8 °C gives MET, anything below gives NOT MET

{"compound": "Cc1nc2c(-c3cnc(N)nc3)nc(N3CCOCC3)nc2n1C(C)C", "target.under.test": "LOC_OS02G45750-cb003", "group": "MET"}
{"compound": "COc1ccc(-c2nc(N3CCOCC3)c3sc(CN(C)c4ncc(C(=O)NO)cn4)cc3n2)cn1", "target.under.test": "LOC_OS02G45750-cb003", "group": "NOT MET"}
{"compound": "C[C@@H]1COC(Nc2ccc3ncnc(Nc4ccc(OCc5nccs5)c(Cl)c4)c3c2)=N1 [Varlitinib]", "target.under.test": "LOC_OS02G45750-cb003", "group": "MET"}
{"compound": "COc1cccc(-c2cc(=O)c3ccccc3o2)c1N", "target.under.test": "LOC_OS02G45750-cb003", "group": "NOT MET"}
{"compound": "COc1ccc(F)c(F)c1C(=O)c1cnc(NC2CCN(S(C)(=O)=O)CC2)nc1N", "target.under.test": "LOC_OS02G45750-cb003", "group": "MET"}
{"compound": "C#Cc1cccc(Nc2ncnc3cc(OCCOC)c(OCCOC)cc23)c1 [Erlotinib]", "target.under.test": "LOC_OS02G45750-cb003", "group": "MET"}
{"compound": "COc1ncc(-c2cc(-c3ncc(CN4C[C@@H](C)O[C@@H](C)C4)o3)c3cn[nH]c3c2)cc1NS(C)(=O)=O", "target.under.test": "LOC_OS02G45750-cb003", "group": "MET"}
{"compound": "O=C1NC(=O)C(c2cnc3ccccn23)=C1c1cn2c3c(cc(F)cc13)CN(C(=O)N1CCCCC1)CC2", "target.under.test": "LOC_OS02G45750-cb003", "group": "NOT MET"}
{"compound": "Cc1c(NC(=O)c2ccc(C(C)(C)C)cc2)cccc1-c1cn(C)c(=O)c(Nc2ccc(C(=O)N3CCOCC3)cc2)n1", "target.under.test": "LOC_OS02G45750-cb003", "group": "MET"}
{"compound": "CCN(CC)CCNC(=O)c1c(C)[nH]c(/C=C2\\C(=O)Nc3ccc(F)cc32)c1C [Sunitinib]", "target.under.test": "LOC_OS02G45750-cb003", "group": "NOT MET"}
{"compound": "Cc1ccc(Nc2nccc(N(C)c3ccc4c(C)n(C)nc4c3)n2)cc1S(N)(=O)=O", "target.under.test": "LOC_OS02G45750-cb003", "group": "MET"}
{"compound": "CC[C@H](CO)Nc1nc(NCc2ccccc2)c2ncn(C(C)C)c2n1 [Roscovitine (Seliciclib,CYC202)]", "target.under.test": "LOC_OS02G45750-cb003", "group": "NOT MET"}
{"compound": "O=C1NC(=O)C(=Cc2ccc(-c3ccc(F)cc3)o2)S1 (stereo in doubt)", "target.under.test": "LOC_OS02G45750-cb003", "group": "MET"}
{"compound": "Cc1cccc(Nc2nc(NC3CCCCC3N)ncc2C(N)=O)c1 (stereo not given)", "target.under.test": "LOC_OS02G45750-cb003", "group": "NOT MET"}
{"compound": "CC(C)NC(=O)COc1cccc(-c2nc(Nc3ccc4[nH]ncc4c3)c3ccccc3n2)c1", "target.under.test": "LOC_OS02G45750-cb003", "group": "MET"}
{"compound": "O=C(Nc1cccnc1)c1cc(-c2ccnc(F)c2)ccc1OCc1ccccc1", "target.under.test": "LOC_OS02G45750-cb003", "group": "MET"}
{"compound": "CC(C)(C)NS(=O)(=O)c1cncc(-c2cc(F)c3nc(N)nn3c2)c1", "target.under.test": "LOC_OS02G45750-cb003", "group": "NOT MET"}
{"compound": "Cc1nc(NC(=O)N2CCC[C@H]2C(N)=O)sc1-c1ccnc(C(C)(C)C(F)(F)F)c1 [Alpelisib (BYL719)]", "target.under.test": "LOC_OS02G45750-cb003", "group": "NOT MET"}
{"compound": "CN(C)Cc1cccc(N/C(=C2\\C(=O)Nc3cc(C(N)=O)ccc32)c2ccccc2)c1", "target.under.test": "LOC_OS02G45750-cb003", "group": "MET"}
{"compound": "c1cncc(CN2CCC(n3ncc4c(N5CCOCC5)nc(-c5ccc6[nH]ccc6c5)nc43)CC2)c1", "target.under.test": "LOC_OS02G45750-cb003", "group": "NOT MET"}
{"compound": "CCCCNc1ncc(C(=O)NCc2ccc(-n3ccnc3)cc2)c(NC2CCC(O)CC2)n1 (stereo not given)", "target.under.test": "LOC_OS02G45750-cb003", "group": "MET"}
{"compound": "OCCn1cc(-c2ccc3c(c2)CC/C3=N\\O)c(-c2ccncc2)n1", "target.under.test": "LOC_OS02G45750-cb003", "group": "NOT MET"}
{"compound": "CN1CC(O)C2=C/C(=N/NC(N)=O)C(=O)C=C21 (stereo not given) [Carbazochrome]", "target.under.test": "LOC_OS02G45750-cb003", "group": "NOT MET"}
{"compound": "CC1=C(C(=O)Nc2cc3cn[nH]c3cc2F)C(c2ccc(C(F)(F)F)cc2)CC(=O)N1 (stereo not given)", "target.under.test": "LOC_OS02G45750-cb003", "group": "NOT MET"}
{"compound": "COc1cc(Nc2ncc(F)c(Nc3ccc4c(n3)NC(=O)C(C)(C)O4)n2)cc(OC)c1OC [R406 (free base)]", "target.under.test": "LOC_OS02G45750-cb003", "group": "MET"}
{"compound": "C[S+]([O-])c1ccc(-c2nc(-c3ccc(F)cc3)c(-c3ccncc3)[nH]2)cc1 (stereo not given)", "target.under.test": "LOC_OS02G45750-cb003", "group": "MET"}
{"compound": "CN1CCN(CCOc2cc(OC3CCOCC3)c3c(Nc4c(Cl)ccc5c4OCO5)ncnc3c2)CC1 [Saracatinib (AZD0530)]", "target.under.test": "LOC_OS02G45750-cb003", "group": "MET"}
{"compound": "Oc1c2ccccc2c2c3c(cccc13)N=N2", "target.under.test": "LOC_OS02G45750-cb003", "group": "MET"}

// provenance: the supplement of paper PMC9694430
